assay: Dasatinib single oral gavage plasma pharmacokinetics (NLME modeling); type: in vivo, mouse; details: female, C57BL/6, mouse, plasma, oral, 10 mg/kg, GROUP:VD3 Def, SEX:F, OCC 1, time 2; read-out: DV (dasatinib plasma concentration)
Measurement kind: concentration at 2 h (ng/mL)
I only need the number, in ng/mL, no unit after it.

## Task For Cc1nc(Nc2ncc(C(=O)Nc3c(C)cccc3Cl)s2)cc(N2CCN(CCO)CC2)n1 , what is its reported concentration at 2 h?
## Result 435

* * *

assay: Dasatinib single oral gavage plasma pharmacokinetics (NLME modeling); format: in vivo, mouse; settings: female, C57BL/6, mouse, plasma, oral, 10 mg/kg, GROUP:VD3 Suf, SEX:F, OCC 2, time 16; read-out: DV (dasatinib plasma concentration)
Measurement kind: concentration at 16 h (ng/mL)
I only need the number, in ng/mL, no unit after it.

## Task For Cc1nc(Nc2ncc(C(=O)Nc3c(C)cccc3Cl)s2)cc(N2CCN(CCO)CC2)n1 [dasatinib] , what is its reported concentration at 16 h?
## Result 8.15

* * *

assay: Dasatinib single oral gavage plasma pharmacokinetics (NLME modeling); format: in vivo, mouse; conditions: male, C57BL/6, mouse, plasma, oral, 10 mg/kg, GROUP:VD3 Suf, SEX:M, OCC 2, time 0.5; read-out: DV (dasatinib plasma concentration)
Measurement kind: concentration at 0.5 h (ng/mL)
I only need the number, in ng/mL, no unit after it.

## Task For Cc1nc(Nc2ncc(C(=O)Nc3c(C)cccc3Cl)s2)cc(N2CCN(CCO)CC2)n1 , what is its reported concentration at 0.5 h?
## Result 316

* * *

assay: Repeated discontinuous oral DEX PK study (another 60 mice); assay type: in vivo, mouse; conditions: female, C57BL/6, mouse, plasma, oral, 8 mg/L in drinking water, DEX conc, individual mouse; repeated study; VD3 Suf; 3.5 Days
Measurement kind: concentration at 3.5 days (nM)
I only need the number, in nM, no unit after it.

## Task For C[C@@H]1C[C@H]2[C@@H]3CCC4=CC(=O)C=C[C@]4(C)[C@@]3(F)[C@@H](O)C[C@]2(C)[C@@]1(O)C(=O)CO , what is its reported concentration at 3.5 days?
## Result 52.8

* * *

experiment: Dasatinib single oral gavage plasma pharmacokinetics (NLME modeling); format: in vivo, mouse; conditions: male, C57BL/6, mouse, plasma, oral, 10 mg/kg, GROUP:VD3 Suf, SEX:M, OCC 2, time 24; read-out: DV (dasatinib plasma concentration)
Measurement kind: concentration at 24 h (ng/mL)
I only need the number, in ng/mL, no unit after it.

## Task For Cc1nc(Nc2ncc(C(=O)Nc3c(C)cccc3Cl)s2)cc(N2CCN(CCO)CC2)n1 , what is its reported concentration at 24 h?
## Result 1.88

* * *

Assay: Plasma DEX concentrations on discontinuous oral DEX regimen in drinking water (Fig 3)
Type: in vivo, mouse
Conditions: female, C57BL/6, mouse, plasma, oral, 8 mg/L, Dexamethasone conc, avg; VD3 deficient; D17.5; n=4
Procedure: 1 g/L of tetracycline (Sigma-Aldrich Inc, St. Louis, MO, USA) was added during both phases. Assuming that mice drink 5 mL of water per day, the dose they receive would be 1.6–2 mg/kg/day. […] At the end of in vivo procedures, all plasma samples were transferred from dry ice and stored at –80°C until analysis. Sidak’s multiple comparison test (**p<0.01, ****p<0.0001) was used to further analyze the effect of vitamin D status at each time point.
Measurement kind: concentration at 17.5 day (nM)
I only need the number, in nM, no unit after it.

## Task For C[C@@H]1C[C@H]2[C@@H]3CCC4=CC(=O)C=C[C@]4(C)[C@@]3(F)[C@@H](O)C[C@]2(C)[C@@]1(O)C(=O)CO , what is its reported concentration at 17.5 day?
## Result 58.5
